# protocol_description: NCI Yeast Anticancer Drug Screen. Data for the wt1 strain (AID 149);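 further: 0% = growth of vehicle-treated wt1 cultures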
# measurement_context: S. cerevisiae wt1 strain (SPY 50644) growth inhibition; at 3.7 µM; active compounds read high
The panel holds about 79,000 compounds, 15% with a hit somewhere; the sample as a whole holds those more often.
# growth inhibition listing for each entry below
measure_name: growth inhibition (%)

CCN(CC)C(=S)N/N=C(\C)c1ccccc1O    -3
COC(=O)/C(C#N)=C\NC(=S)C(N)=S    26
Oc1ccc(N=Nc2ccc(Cl)cc2)cc1    7
c1cc(-c2sc(-c3ccncc3)c(-c3ccncc3)c2-c2ccncc2)ccn1    -1
O=c1[nH]c2c([N+](=O)[O-])cccc2c2ccccc12    -2
CCCC/C=C1\CCC(CN2CCCC2)C1=O (stereo unspecified)    -17

###

# protocol_description: NCI Yeast Anticancer Drug Screen. Data for the rad18 strain (AID 177)
# measurement_context: S. cerevisiae rad18 mutant growth inhibition; at 3.7 µM
About 79,000 compounds went through this panel and 15% of them were active in at least one assay; those are over-represented in the sample as a whole. Active and inactive are the calls of the source. No stated cut-off is given here; in the data, active means growth inhibition above about 70%; inactive means the rest.
Outcome codes: active, inactive

O=CC1(F)CC1(c1ccccc1)c1ccccc1 (stereo not drawn)    inactive
Cc1cccc(C)c1NC(=O)C(C#N)C1=C(Cl)C(=O)c2ccccc2C1=O (stereo not drawn)    inactive
COC(=O)c1ccccc1N=NNc1cccc(SC)c1    inactive
OC(c1ccccc1)(c1ccccc1)c1nccc2ccccc12    inactive
S=C(NCc1ccccn1)N/N=C/c1ccccn1    active
O=[N+]([O-])[O][Sn]([O][Sn]([O][N+](=O)[O-])([c]1ccccc1)[c]1ccccc1)([c]1ccccc1)[c]1ccccc1    inactive
Nc1ccc(/C=C/c2ccc3cccnc3c2)cc1    inactive
O=c1c2ccccc2nc(-c2ccc(Cl)cc2)n1O    active
CCOC(=S)SSSC(=S)OCC    inactive
CC(=O)CC(c1ccccc1)c1c(O)c2ccccc2oc1=O (stereo not drawn)    inactive
CN(C)CC(CN(C)C)C(=O)/C=C/c1ccc(Cl)cc1Cl    inactive
CCC(/C=C/c1ccccc1)=N\Nc1ccc(Cl)cc1    inactive
Cc1oc2ccccc2c(=O)c1Cn1nnc2ccccc21    inactive
COc1cc2c(cc1O)[C@H](C)C(c1ccccc1OC)O2 (stereo partly drawn)    inactive
CC1(C)OC(=O)C(=Cc2ccc([N+](=O)[O-])s2)C(=O)O1    inactive
COc1cccc(C(NC2=NCCC=N2)c2cc3c(cc2O)OCO3)c1O (stereo not drawn)    inactive
CCOc1ccc2nc3ccccc3c(N)c2c1    inactive
CCCCCCCCCCCCCCCCCCNc1nc(=O)n(C2CC(OP(=O)(O)OCC3OC(n4cc(F)c(=O)[nH]c4=O)CC3O)C(CO)O2)cc1F (stereo not drawn)    inactive
O=c1[nH]c2c([N+](=O)[O-])cccc2c2ccccc12    inactive
Cc1cc(C)c(S(=O)(=O)c2ccc(Cl)cc2)c(C)c1    inactive
CC1=CN2C(c3ccccc3)=NON(c3ccc(C)cn3)C2C=C1 (stereo not drawn)    inactive
N#C/C(=C\NC(=S)Nc1ccc(S(N)(=O)=O)cc1)C(=O)c1ccc2ccccc2c1    inactive
CC(=O)N1C=Cc2c(c(C)c3c([nH]c4ccccc43)c2C)C1    inactive

###

# protocol_description: NCI Yeast Anticancer Drug Screen. Data for the rad18 strain (AID 177)
# measurement_context: S. cerevisiae rad18 mutant growth inhibition; at 100.0 µM
The panel holds about 79,000 compounds, 15% with a hit somewhere; the sample as a whole holds those more often. Calls of active or inactive are those of the source. Cut-off read from the data, not from the text of the source: active = growth inhibition above about 70%; inactive = the rest.
Outcome codes: active, inactive

N#CC1OB(O)c2ccccc21 (configuration not stated)    inactive
CCCCN(CCCC)c1ccc(N=Nc2ccc(S(=O)(=O)O)cc2)cc1    active
CCN(CC)C(=S)SC(=S)N(CC)CC    active
O=C1SS(=O)c2ccccc21 (configuration not stated)    active
CCCCCCC1OCC(O)C(OCCCC)O1 (configuration not stated)    inactive
O=[N+]([O-])c1ccc(S(=O)(=O)Cc2ccccc2)c([N+](=O)[O-])c1    active
C/C(=N/NC(=S)Nc1ccccc1C)c1ccccn1    inactive
